Test system: Candida
test.method.notes: Minimum inhibitory concentration against Candida krusei 1766-1 evaluated by in vitro agar diffusion and micro-broth dilution assay
Assay type: functional, Candida kruisii
Below, each entry is listed alongside its reported MIC.
Just the number please, in µg/mL, no unit attached.

Below: 3 compounds and their reported MIC.
COc1cc(NC(=N)N)ccc1-c1ccc(-c2ccc(NC(=N)N)cc2OC)n1C    16
Cn1c(-c2ccc(N=C(N)N)c(C(F)(F)F)c2)ccc1-c1ccc(N=C(N)N)c(C(F)(F)F)c1    16
Cc1cc(NC(=N)N)ccc1-c1ccc(-c2ccc(NC(=N)N)cc2C)n1C    8

Lookup: Name the recorded MIC for "Cn1c(-c2ccc(NC(=N)N)cc2Cl)ccc1-c1ccc(NC(=N)N)cc1Cl" .
Found: 16

Lookup: Name the recorded MIC for OC(Cn1cncn1)(Cn1cncn1)c1ccc(F)cc1F [FLUCONAZOLE] .
Found: 32

* * *

Tested on: Candida
test.method.notes: Minimum inhibitory concentration against Candida krusei 1766-1 evaluated by in vitro agar diffusion and micro-broth dilution assay
Format: functional, Candida kruisii
measured.property: MIC

CCC(C)n1ncn(-c2ccc(N3CCN(c4ccc(OC[C@H]5CO[C@](Cn6cncn6)(c6ccc(Cl)cc6Cl)O5)cc4)CC3)cc2)c1=O (stereo partly drawn)    < 0.03 µg/mL

Lookup: Name the recorded MIC for "Cn1c(-c2ccc(NC(=N)N)cc2)ccc1-c1ccc(NC(=N)N)cc1" .
Found: > 16 µg/mL

Lookup: Name the recorded MIC for "Cn1c(-c2cc(F)c(NC(=N)N)cc2F)ccc1-c1cc(F)c(NC(=N)N)cc1F" .
Found: > 16 µg/mL
